- METHOD NOTES: Cytotoxicity against Vero cells (MTT assay)
- Assay type: cell-based
- CONDITION NOTES: African green monkey (Chlorocebus sp.)
- Procedure: The HSV-1 strain L2 and Vero cell culture (kidney epithelial cells of the African green monkey Chlorocebus sp.) were obtained from the N.F. Gamaleya Federal Research Centre for Epidemiology and Microbiology (Moscow, Russia). […] The cytotoxicity evaluation of the studied compounds was performed using the MTT assay, as described previously. […] After dissolution of formazan crystals, optical densities were read at 540 nm (Labsystems Multiskan RC, Vantaa, Finland). […]
MEASUREMENT TYPE: CC50 at 48 h (µg/mL)
One number for each entry, in µg/mL.

The measured CC50 at 48 h associated with `Oc1cc(O)cc(/C=C/c2ccc(O)c(O)c2)c1` reads 250

====

- METHOD NOTES: Cytotoxic activity against Neuro-2a cells (MTT assay)
- Format: cell-based, murine
- CONDITION NOTES: mouse, Neuro-2a neuroblastoma cells, data not shown, read-out: EC50 of cell viability reduction (cytotoxic activity)
MEASUREMENT TYPE: EC50 at 24 h (µM)
Numbers only, in µM.

Field EC50 at 24 h (entry `Oc1cc(O)cc(/C=C/c2ccc3c(c2)O[C@H](c2cc(O)cc(O)c2)[C@@H](c2ccc(O)c(O)c2)O3)c1` ) reads 87.7

====

- System: HSV-1
- METHOD NOTES: Anti-HSV-1 activity, cytopathic effect (CPE) inhibition assay in Vero cells
- Type: cell-based, HSV-1 strain L2
- CONDITION NOTES: Vero cells, HSV-1
MEASUREMENT TYPE: SI = CC50/IC50
One number for each entry.

Would you please look over these solved cases?
compound Nc1nc2c(ncn2COCCO)c(=O)[nH]1 [Acyclovir, reference compound] , SI = CC50/IC50 observed: 430

For this compound ( `COc1ccc([C@@H]2COc3cc(O)ccc3[C@H]2c2c(O)cc(O)cc2/C=C/c2ccc(O)c(O)c2)c(O)c1` ), measured SI = CC50/IC50 is 11.6

Would you be so kind as to report SI = CC50/IC50 for each listed record?
1. Oc1cc(O)cc(/C=C/c2ccc(O)c(O)c2)c1
2. Oc1ccc(/C=C/c2cc(O)cc3c2[C@H](c2cc(O)cc(O)c2)[C@@H](c2ccc(O)c(O)c2)O3)cc1
3. Oc1cc(O)cc(/C=C/c2ccc3c(c2)O[C@H](c2cc(O)cc(O)c2)[C@@H](c2ccc(O)c(O)c2)O3)c1

1. 11.4
2. 14.4
3. 15.3
